pIC50 values for the compounds below.
- measuredTarget: UniProt:Q7YWJ9
- measurementDescription: Inhibition of commercial AChE kit (Sichen), cuvette
- Format: biochemical, fly
pIC50: −log10 of the molar value.

compound | pIC50
CNC(=O)Oc1cccc2ccccc12 | 5.23
CCOC(=O)CC(SP(=O)(OC)OC)C(=O)OCC (centres unmarked) | 6.02

###

pIC50 values for the molecules below.
- measuredTarget: commercialized AChE (Sichen) (Musca domestica)
- Sequence (Q7YWJ9 81-659): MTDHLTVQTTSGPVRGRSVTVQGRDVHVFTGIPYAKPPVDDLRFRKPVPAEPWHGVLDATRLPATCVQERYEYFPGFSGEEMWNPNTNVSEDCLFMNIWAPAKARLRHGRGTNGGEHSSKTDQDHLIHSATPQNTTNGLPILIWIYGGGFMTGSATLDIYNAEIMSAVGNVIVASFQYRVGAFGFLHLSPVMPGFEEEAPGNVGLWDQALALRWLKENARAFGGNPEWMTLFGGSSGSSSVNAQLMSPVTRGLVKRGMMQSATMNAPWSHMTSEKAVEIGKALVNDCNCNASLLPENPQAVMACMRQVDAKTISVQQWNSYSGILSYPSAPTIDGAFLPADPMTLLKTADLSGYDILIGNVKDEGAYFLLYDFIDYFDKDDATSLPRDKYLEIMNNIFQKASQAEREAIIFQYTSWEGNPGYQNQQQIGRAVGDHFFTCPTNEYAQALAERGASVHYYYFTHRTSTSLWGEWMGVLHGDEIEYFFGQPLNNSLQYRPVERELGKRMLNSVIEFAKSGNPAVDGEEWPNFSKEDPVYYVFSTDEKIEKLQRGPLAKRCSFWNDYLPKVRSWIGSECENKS
- measurementDescription: Inhibition of commercial AChE kit (Sichen), cuvette
- Format: biochemical, fly
- condition: commercialized AChE kit, cuvette (1 mL); read-out: IC50 of OP and CB towards AChEs, Sichen
pIC50: −log10 of the molar value.
property: pIC50

molecule | reported
CCOP(=O)(OCC)Oc1ccc([N+](=O)[O-])cc1 [Paraoxon ethyl, paraoxon ethyl] | 5.64
CNC(=O)Oc1cccc2c1OC(C)(C)C2 [Carbofuran, carbofuran] | 5.55

###

- measuredTarget: AChE-FL (full-length AChE Y408F displayed on Hi5 cells) (Drosophila melanogaster, UniProt P07140, R99G/Y408F)
- Construct: honeybee mellitin signal peptide (HM) (N); expressed in transfected cells; host or cells: Trichoplusia ni High Five (Hi5) cells infected with recombinant baculovirus vAChE-FL, lyophilised in the plate
- measurementDescription: Inhibition of cell-surface displayed AChE-FL (Ellman's method, ATCh/DTNB, 412 nm)
- Assay type: biochemical
pIC50: −log10 of the molar value.

compound | pIC50
CCOC(=O)CC(SP(=O)(OC)OC)C(=O)OCC (centres unmarked) | 6.25
CNC(=O)Oc1cccc2ccccc12 | 5.17

###

- measuredTarget: AChE (Abcam) (UniProt O42275)
- Sequence (O42275 whole entry): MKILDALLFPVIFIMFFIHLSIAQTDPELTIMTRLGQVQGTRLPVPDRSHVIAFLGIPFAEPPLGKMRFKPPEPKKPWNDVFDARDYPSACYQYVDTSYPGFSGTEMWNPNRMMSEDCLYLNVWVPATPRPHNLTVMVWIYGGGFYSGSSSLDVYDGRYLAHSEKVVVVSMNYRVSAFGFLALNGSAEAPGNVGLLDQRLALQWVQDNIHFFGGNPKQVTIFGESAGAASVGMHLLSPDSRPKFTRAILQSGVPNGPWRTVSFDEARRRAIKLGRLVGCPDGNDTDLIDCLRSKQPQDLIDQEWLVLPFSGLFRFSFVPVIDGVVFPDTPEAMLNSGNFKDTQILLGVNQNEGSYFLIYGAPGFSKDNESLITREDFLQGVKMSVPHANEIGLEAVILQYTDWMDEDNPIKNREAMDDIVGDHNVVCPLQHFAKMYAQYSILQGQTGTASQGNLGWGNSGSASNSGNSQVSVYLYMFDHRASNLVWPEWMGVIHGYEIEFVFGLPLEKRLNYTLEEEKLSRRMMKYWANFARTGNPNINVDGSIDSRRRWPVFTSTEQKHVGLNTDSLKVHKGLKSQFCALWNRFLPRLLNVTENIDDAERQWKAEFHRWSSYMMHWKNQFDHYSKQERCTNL
- measurementDescription: Inhibition of purified standard AChE (Abcam)
- Assay type: biochemical
- condition: 100 mU/mL purified AChE standard, 96-well plate; read-out: IC50 of OP and CB towards AChEs, Abcam
property: IC50 (nM)

entrySmiles | property | reported
CNC(=O)Oc1cccc2c1OC(C)(C)C2 | IC50 | 540

###

- measuredTarget: AChE (Abcam) (UniProt O42275)
- measurementDescription: Inhibition of purified standard AChE (Abcam)
- Assay type: biochemical
- condition: read-out: IC50 of OP and CB towards AChEs, Abcam; 100 mU/mL purified AChE standard, 96-well plate

compound | IC50, µM
CNC(=O)Oc1cccc2ccccc12 | 6.5
CCOC(=O)CC(SP(=O)(OC)OC)C(=O)OCC (centres unmarked) | 0.82

Entry source: patent US20210371899A1
